The reported measurements were obtained from patent US9902728B2.

measured-target: USP7 (Homo sapiens, UniProt Q93009)
Construct: USP7, construct USP7 (208-1102) 6*His, Viva Biotech; 6xHis (C); purchased Viva Biotech
Sequence (Q93009 208-1102): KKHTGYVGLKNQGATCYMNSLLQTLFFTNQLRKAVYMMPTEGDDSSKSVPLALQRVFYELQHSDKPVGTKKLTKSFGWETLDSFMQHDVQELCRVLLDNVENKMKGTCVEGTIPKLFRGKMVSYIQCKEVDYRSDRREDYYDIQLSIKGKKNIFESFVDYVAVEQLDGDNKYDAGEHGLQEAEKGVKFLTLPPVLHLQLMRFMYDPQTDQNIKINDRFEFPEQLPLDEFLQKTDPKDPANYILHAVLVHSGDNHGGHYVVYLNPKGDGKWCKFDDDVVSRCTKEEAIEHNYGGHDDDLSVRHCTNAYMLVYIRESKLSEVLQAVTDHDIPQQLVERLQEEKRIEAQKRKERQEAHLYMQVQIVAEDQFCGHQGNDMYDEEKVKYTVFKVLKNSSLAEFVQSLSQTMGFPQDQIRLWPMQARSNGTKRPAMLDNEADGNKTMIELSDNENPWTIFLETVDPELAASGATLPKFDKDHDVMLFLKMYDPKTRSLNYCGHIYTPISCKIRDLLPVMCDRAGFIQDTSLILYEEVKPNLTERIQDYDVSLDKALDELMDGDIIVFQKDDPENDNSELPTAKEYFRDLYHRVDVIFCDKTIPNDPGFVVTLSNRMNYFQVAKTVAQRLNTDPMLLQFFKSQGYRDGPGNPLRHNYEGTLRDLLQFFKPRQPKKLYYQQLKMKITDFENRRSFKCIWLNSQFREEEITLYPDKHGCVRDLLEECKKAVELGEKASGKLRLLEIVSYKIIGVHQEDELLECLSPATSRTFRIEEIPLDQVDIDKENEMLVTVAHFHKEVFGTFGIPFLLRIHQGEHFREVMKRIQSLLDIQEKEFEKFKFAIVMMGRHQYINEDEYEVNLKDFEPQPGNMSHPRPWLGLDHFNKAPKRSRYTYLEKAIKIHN
assay-summary: USP7 Assay A (Ubitquin-Rhodamine 110 Assay)
Assay type: biochemical
assay-setup: USP7 activity in USP7 assay A and B (table does not say which assay per compound); read-out: USP7_IC50
Parameter IC50: see the listing below.

Solved cases (4 shown):
CC1(C(=O)N2CCC(O)(Cn3cnc4c(cnn4-c4ccc(-c5cnn(C(F)F)c5)cc4)c3=O)CC2)CC1; 200 to 1000 nM
O=C(c1cccn1Cc1cccc(F)c1)N1CCC(O)(Cn2cnc3c(cnn3-c3ccc(F)cc3)c2=O)CC1; 200 to 1000 nM
O=C(C1CCC(Oc2cccnc2)CC1)N1CCC(O)(Cn2cnc3c(cnn3-c3ccc(F)cc3)c2=O)CC1 (centres unmarked) [Compound I-749]; < 200 nM
CC1(C(=O)N2CCC(O)(Cn3cnc4c(cnn4-c4ccc(N5CCN(C6COC6)CC5)cc4)c3=O)CC2)CC1; 200 to 1000 nM

Kindly review the next compound as well.
Query: Could you tell me which IC50 is on file for "CC1(C(=O)N2CCC(O)(Cn3cnc4c(cnn4-c4ccc(-n5cc(C(F)(F)F)cn5)cc4)c3=O)CC2)CCC1" ?
Response: < 200 nM

---

measured-target: USP7 (Homo sapiens)
Construct: USP7, construct USP7 (208-1102) 6*His, Viva Biotech; 6xHis (C); purchased Viva Biotech
assay-summary: USP7 Assay A (Ubitquin-Rhodamine 110 Assay)
Assay type: biochemical
assay-setup: USP7 assay A and B (table does not say which assay per compound); read-out: USP7_IC50
Documented IC50 across a set of compounds

Query: Reported IC50 for USP7 (Homo sapiens), given CC1(O)CCN(Cc2cccc(C(=O)N3CCC(O)(Cn4cnc5c(cnn5-c5ccc(F)cc5)c4=O)CC3)c2)C1 (centres unmarked) ?
Response: > 10 µM

Query: And then CC(CC(=O)N1CCC(O)(Cn2cnc3c(cnn3-c3ccc(F)cc3)c2=O)CC1)n1cccn1 (centres unmarked) , what is it?
Response: 0.2 to 1 µM

Query: Try this compound next: "O=C(C1CCCCC1)N1CCC(O)(Cn2cnc3c(cnn3-c3ccccc3)c2=O)CC1"
Response: 0.2 to 1 µM

Query: // next record "COc1ccc(-n2ncc3c(=O)n(CC4(O)CCN(C(=O)c5ccc(F)cc5)CC4)cnc32)cc1"
Response: 0.2 to 1 µM

Query: One more compound: "O=C(C1CC1)N1CCC(O)(Cn2cnc3c(cnn3-c3cccc(N4CCCC4)c3)c2=O)CC1"
Response: 0.2 to 1 µM

Query: Also "CN1CCC(c2ccc(C(=O)N3CCC(O)(Cn4cnc5c(cnn5-c5ccc(F)cc5)c4=O)CC3)cc2)CC1" , if possible.
Response: > 10 µM

Query: And for "O=C(c1ccc(-n2nccn2)cc1)N1CCC(O)(Cn2cnc3c(cnn3-c3ccc(Cl)cc3)c2=O)CC1" ?
Response: 1 to 10 µM

Query: What do we get for "CN1CCN(c2ccc(-n3ncc4c(=O)n(CC5(O)CCN(C(=O)C6CC6)CC5)cnc43)cc2Cl)CC1" ?
Response: 1 to 10 µM

Query: Input COc1ccc(C(=O)N2CCC(O)(C(C)n3cnc4c(cnn4-c4ccc(F)cc4)c3=O)CC2)cc1 (single isomer, unassigned) [Compound I-615]
Response: 0.2 to 1 µM

Query: Entry "O=C(c1ccc(Oc2ncccn2)cc1)N1CCC(O)(Cn2cnc3c(cnn3-c3ccc(F)cc3)c2=O)CC1" please
Response: 1 to 10 µM

Query: // query: "O=C(c1ccc(OC(F)F)cc1)N1CCC(O)(Cn2cnc3c(cnn3-c3cnn(C4CC4)c3)c2=O)CC1"
Response: 1 to 10 µM

Query: And what about the compound "O=C(c1ccncc1)N1CCC(O)(Cn2cnc3c(cnn3-c3ccccc3)c2=O)CC1" ?
Response: 1 to 10 µM

Query: Okay, and "O=C(C1CC1)N1CCC(O)(Cn2cnc3c(cnn3-c3ccc(OC4CCOCC4)cc3)c2=O)CC1" ?
Response: 1 to 10 µM

---

measured-target: USP7 (Homo sapiens, UniProt Q93009)
Construct: USP7, construct USP7 (208-1102) 6*His, Viva Biotech; 6xHis (C); purchased Viva Biotech
assay-summary: USP7 Assay A (Ubitquin-Rhodamine 110 Assay)
Assay type: biochemical
assay-setup: USP7 activity in USP7 assay A and B (table does not say which assay per compound); read-out: USP7_IC50
pIC50: −log10 of the molar value.
readout-name: pIC50

O=C(C[C@H](C(F)F)n1ccc(Cl)n1)N1CCC(O)(Cn2cnc3c(cnn3-c3ccc(F)cc3)c2=O)CC1 [Compound I-731]; > 6.70
Cc1snc(Cc2ccccc2)c1C(=O)N1CCC(O)(Cn2cnc3c(cnn3-c3ccc(F)cc3)c2=O)CC1 [Compound I-1110]; > 6.70
CC1(O)CCN(c2ccc(-n3ncc4c(=O)n(CC5(O)CCN(C(=O)c6ccc(F)cc6)CC5)cnc43)cc2)C1 (stereo not shown) [Compound I-1168]; 6.00 to 6.70

Query: Notebook entry, USP7 (Homo sapiens, UniProt Q93009) assay: pIC50 of O=C(c1cnn(C2CC2)c1)N1CCC(O)(Cn2cnc3c(cnn3-c3ccc(F)cc3)c2=O)CC1 [Compound I-726] = ?
Response: 6.00 to 6.70

---

Collected pIC50 values appear next to each entry.
measured-target: USP7 (Homo sapiens)
Construct: USP7, construct USP7 (208-1102) 6*His, Viva Biotech; 6xHis (C); purchased Viva Biotech
assay-summary: USP7 Assay A (Ubitquin-Rhodamine 110 Assay)
Format: biochemical
assay-setup: USP7 activity in USP7 assay A and B (table does not say which assay per compound); read-out: USP7_IC50
Protocol: Each assay was performed in a final volume of 15 μL in assay buffer containing 20 mM Tris-HCl (pH 8.0, (1M Tris-HCl, pH 8.0 solution; Corning 46-031-CM)), 1 mM GSH (L-Glutathione reduced; Sigma #G4251), 0.03% BGG ([…], Sigma, #G7516-25G), and 0.01% Triton X-100 (Sigma, #T9284-10L). […] Fluorescence was read on the Envision (Excitation at 485 nm and Emission at 535 nm; Perkin Elmer) or on the PheraSTAR (Excitation at 485 nm and Emission at 535 nm; BMG Labtech). […]
pIC50: −log10 of the molar value.

Cn1cc(-c2ccc(-n3ncc4c(=O)n(CC5(O)CCN(C(=O)C6(C)CC6)CC5)cnc43)cc2)cn1; 6.00 to 6.70

Query: # get_value(readout='pIC50', item= O=C(C1CCC(Oc2ccccn2)CC1)N1CCC(O)(Cn2cnc3c(ccn3-c3ccc(F)cc3)c2=O)CC1 (stereo not shown) [Compound I-1124] )
Response: > 6.70

Query: // query: CC1(C(=O)N2CCC(O)(Cn3cnc4c(cnn4-c4ccc(F)cc4)c3=O)CC2)CCC(Oc2ccccn2)CC1 (stereo not shown) [Compound I-745]
Response: 5.00 to 6.00

Query: Try this compound next: "CC1(C(=O)N2CCC(O)(Cn3cnc4c(cnn4-c4cccc(OC5CCC(F)(F)CC5)c4)c3=O)CC2)CC1"
Response: > 6.70

---

Some compounds, each annotated with its measured IC50.
measured-target: USP7 (Homo sapiens, UniProt Q93009)
Construct: USP7, construct USP7 (208-1102) 6*His, Viva Biotech; 6xHis (C); purchased Viva Biotech
assay-summary: USP7 Assay A (Ubitquin-Rhodamine 110 Assay)
Assay type: biochemical
assay-setup: USP7 activity in USP7 assay A and B (table does not say which assay per compound); read-out: USP7_IC50

CN1CCN(c2cccc(-n3ccc4c(=O)n(CC5(O)CCN(C(=O)C[C@H](C(F)F)n6cccn6)CC5)cnc43)c2)CC1; 200 to 1000 nM
COC1CCC(Oc2ccc(-n3ncc4c(=O)n(CC5(O)CCN(C(=O)C6(C)CC6)CC5)cnc43)cc2)CC1 (single isomer, unassigned); 200 to 1000 nM
O=C(N1CCC(O)(Cn2cnc3c(cnn3-c3ccc(F)cc3)c2=O)CC1)N1CCc2cn[nH]c2C1; < 200 nM
Nc1cc(Cl)ccc1C(=O)N1CCC(O)(Cn2cnc3c(cnn3-c3ccc(F)cc3)c2=O)CC1; 1000 to 10000 nM
O=C(OCCCN1CCCC1)N1CCC(O)(Cn2cnc3c(cnn3-c3ccc(F)cc3)c2=O)CC1; 1000 to 10000 nM
CN1Cc2cn(-c3ccc(C(=O)N4CCC(O)(Cn5cnc6c(cnn6-c6ccc(F)cc6)c5=O)CC4)cc3)nc2C1; 1000 to 10000 nM
O=C(c1cccn1Cc1ccccc1F)N1CCC(O)(Cn2cnc3c(cnn3-c3ccc(F)cc3)c2=O)CC1; 200 to 1000 nM
C[C@H]1CN(c2cccc(-n3ncc4c(=O)n(CC5(O)CCN(C(=O)C6(C)CC6)CC5)cnc43)c2)CCN1C; < 200 nM

Query: Which IC50 is reported for this compound? "O=C(c1ccc(N2CCN3CCC2CC3)cc1)N1CCC(O)(Cn2cnc3c(cnn3-c3ccc(F)cc3)c2=O)CC1"
Response: 1000 to 10000 nM

Query: Queued: O=C(C1CCC(Oc2ccc(F)cn2)CC1)N1CCC(O)(Cn2cnc3c(cnn3-c3ccc(F)cc3)c2=O)CC1 (centres unmarked) [Compound I-737]
Response: < 200 nM

Query: Request: "Cc1ncc(C(=O)N2CCC(O)(Cn3cnc4c(cnn4-c4ccc(OCC5(F)CCC5)cc4)c3=O)CC2)o1"
Response: < 200 nM

Query: # repeat for "Cc1ncc(C(=O)N2CCC(O)(Cn3cnc4c(cnn4-c4ccc(-n5cc(Cl)cn5)cc4)c3=O)CC2)o1"
Response: < 200 nM

Query: One more compound: "O=C(c1ccc(-c2cnn(CCO)c2)cc1)N1CCC(O)(Cn2cnc3c(cnn3-c3ccc(F)cc3)c2=O)CC1"
Response: 1000 to 10000 nM

Query: Then this compound: "C=CC(=O)N1CC[C@]1(C)C(=O)N1CCC(O)(Cn2cnc3c(cnn3-c3ccc(-c4ccccc4)cc3)c2=O)CC1"
Response: 200 to 1000 nM
